# ASSAYED_TARGET: hepatitis C virus RNA dependant polymerase (NS5B) (Hepatitis C virus genotype 1b)
# Sequence (P26663 2420-3010): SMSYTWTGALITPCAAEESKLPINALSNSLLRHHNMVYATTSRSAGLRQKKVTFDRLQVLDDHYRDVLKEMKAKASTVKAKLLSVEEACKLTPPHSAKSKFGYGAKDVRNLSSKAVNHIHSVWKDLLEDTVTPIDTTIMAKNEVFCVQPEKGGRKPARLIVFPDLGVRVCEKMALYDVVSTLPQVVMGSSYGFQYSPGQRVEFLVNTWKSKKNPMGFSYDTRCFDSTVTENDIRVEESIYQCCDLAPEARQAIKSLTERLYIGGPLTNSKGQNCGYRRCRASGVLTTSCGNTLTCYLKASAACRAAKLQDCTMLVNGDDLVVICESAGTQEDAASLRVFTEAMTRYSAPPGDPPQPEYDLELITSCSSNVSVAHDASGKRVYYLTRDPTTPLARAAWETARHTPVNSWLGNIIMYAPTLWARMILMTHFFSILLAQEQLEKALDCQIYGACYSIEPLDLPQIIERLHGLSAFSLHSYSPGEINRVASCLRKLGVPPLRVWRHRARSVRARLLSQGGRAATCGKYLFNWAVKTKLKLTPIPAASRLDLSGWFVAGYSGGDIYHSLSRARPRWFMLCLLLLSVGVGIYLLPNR
# EXPERIMENTAL_PROTOCOL: Inhibition of NS5B RNA dependent RNA polymerase activity
# Assay type: biochemical
# EXPERIMENTAL_PARAMETERS: Table 7; class ranges
Give measured IC50 for each item. Keep answers brief.

Solved cases (2 shown):
# COMPOUND, IC50
data = [
    ("CN(CCc1ccccn1)C(=O)c1ccc2c(c1)c(C1CCCCC1)c(-c1ccoc1)n2CC(=O)N1CCC(N2CCCC2)CC1", "1000 to 10000 nM"),
    ("COC(=O)C(Cc1ccc(Cl)cc1)NC(=O)c1ccc2c(c1)c(C1CCCCC1)c(-c1ccoc1)n2CC(=O)N1CCC(N2CCCC2)CC1 (centres unmarked)", "1000 to 10000 nM"),
]

Give IC50 for all compounds that follow.
1. O=C(NCc1c(F)cccc1Cl)c1ccc2c(c1)c(C1CCCCC1)c(-c1ccoc1)n2CC(=O)N1CCC(N2CCCC2)CC1
2. COc1cc2c(C3CCCCC3)c(-c3ccoc3)n(CC(=O)N(C)C)c2cc1C(=O)O
3. Cc1c(C(=O)O)ccc2c(C3CCCCC3)c(-c3ccoc3)n(CC(=O)N3CCOCC3)c12
4. CC(NC(=O)c1ccc2c(c1)c(C1CCCCC1)c(-c1ccoc1)n2CC(=O)N1CCC(N2CCCC2)CC1)c1ccccc1 (centres unmarked)
5. NS(=O)(=O)c1ccc(CCNC(=O)c2ccc3c(c2)c(C2CCCCC2)c(-c2ccoc2)n3CC(=O)N2CCC(N3CCCC3)CC2)cc1
6. Cc1c(C(=O)O)ccc2c(C3CCCCC3)c(-c3ccoc3)n(CC(=O)N3CCC(N4CCCC4)CC3)c12
7. O=C(N[C@H]1CC[C@H](O)CC1)c1ccc2c(c1)c(C1CCCCC1)c(-c1ccoc1)n2CC(=O)N1CCC(N2CCCC2)CC1
8. O=C(O)CC(NC(=O)c1ccc2c(c1)c(C1CCCCC1)c(-c1ccoc1)n2CC(=O)N1CCC(N2CCCC2)CC1)C(F)(F)F (centres unmarked)

["1000 to 10000 nM", "200 to 1000 nM", "< 200 nM", "1000 to 10000 nM", "1000 to 10000 nM", "< 200 nM", "1000 to 10000 nM", "1000 to 10000 nM"]

Give IC50 for all compounds that follow.
1. CC(C)(C)NC(=O)[C@@H]1Cc2ccccc2CN1C(=O)c1ccc2c(c1)c(C1CCCCC1)c(-c1ccoc1)n2CC(=O)N1CCC(N2CCCC2)CC1
2. COC(=O)C(Cc1ccc(O)cc1)NC(=O)c1ccc2c(c1)c(C1CCCCC1)c(-c1ccoc1)n2CC(=O)N1CCC(N2CCCC2)CC1 (centres unmarked)
3. CC(=O)NC1CCN(C(=O)c2ccc3c(c2)c(C2CCCCC2)c(-c2ccoc2)n3CC(=O)N2CCC(N3CCCC3)CC2)C1 (centres unmarked)

1. 1000 to 10000 nM
2. 1000 to 10000 nM
3. 1000 to 10000 nM

Give IC50 for all compounds that follow.
1. O=C(NCc1ccccn1)c1ccc2c(c1)c(C1CCCCC1)c(-c1ccoc1)n2CC(=O)N1CCC(N2CCCC2)CC1
2. COc1cc2c(C3CCCCC3)c(-c3ccoc3)n(CC(=O)N3CCC(N4CCCC4)CC3)c2cc1C(=O)O
3. O=C(NCc1ccccc1)c1ccc2c(c1)c(C1CCCCC1)c(-c1ccoc1)n2CC(=O)N1CCC(N2CCCC2)CC1

["1000 to 10000 nM", "200 to 1000 nM", "1000 to 10000 nM"]

Give IC50 for all compounds that follow.
1. CC(C)CC(NC(=O)c1ccc2c(c1)c(C1CCCCC1)c(-c1ccoc1)n2CC(=O)N1CCC(N2CCCC2)CC1)C(N)=O (centres unmarked)
2. Cc1cnc(CNC(=O)c2ccc3c(c2)c(C2CCCCC2)c(-c2ccoc2)n3CC(=O)N2CCC(N3CCCC3)CC2)cn1
3. O=C(NCCSCc1c(F)cccc1Cl)c1ccc2c(c1)c(C1CCCCC1)c(-c1ccoc1)n2CC(=O)N1CCC(N2CCCC2)CC1
4. O=C(O)c1cc2c(cc1O)c(C1CCCCC1)c(-c1ccoc1)n2CC(=O)N1CCC(N2CCCC2)CC1
5. O=C(NCCN1CCCC1)c1ccc2c(c1)c(C1CCCCC1)c(-c1ccoc1)n2CC(=O)N1CCC(N2CCCC2)CC1

["1000 to 10000 nM", "1000 to 10000 nM", "1000 to 10000 nM", "1000 to 10000 nM", "1000 to 10000 nM"]

Give IC50 for all compounds that follow.
1. Cc1oc(-c2ccc(NC(=O)c3ccc4c(c3)c(C3CCCCC3)c(-c3ccoc3)n4CC(=O)N3CCC(N4CCCC4)CC3)cc2)cc1C(=O)O
2. O=C(NCc1ccc(F)c(C(F)(F)F)c1)c1ccc2c(c1)c(C1CCCCC1)c(-c1ccoc1)n2CC(=O)N1CCC(N2CCCC2)CC1
3. O=C(NC1CCN(Cc2ccccc2)C1)c1ccc2c(c1)c(C1CCCCC1)c(-c1ccoc1)n2CC(=O)N1CCC(N2CCCC2)CC1 (centres unmarked)
4. O=C(O)CCc1cccc(NC(=O)c2ccc3c(c2)c(C2CCCCC2)c(-c2ccoc2)n3CC(=O)N2CCC(N3CCCC3)CC2)c1

1: 1000 to 10000 nM; 2: 1000 to 10000 nM; 3: 1000 to 10000 nM; 4: 1000 to 10000 nM

Would you mind telling me what IC50 value was observed for `COc1ccc(CNC(=O)c2ccc3c(c2)c(C2CCCCC2)c(-c2ccoc2)n3CC(=O)N2CCC(N3CCCC3)CC2)cc1OC` ? 1000 to 10000 nM
